tested on: COLO 205 colon; assay: NCI-60 one-dose screen, 48 h; details: 10 µM unless noted
This is part of a sample that, as a whole, favours compounds with a hit. Of some 83,000 tested, about 20% had one in any assay. Active and inactive are the calls of the source. The calls were made as follows: active = growth percent below 10; inactive = the rest.
Please state which outcome applies, choosing from class 1 (active), class 0 (inactive)

Observe how each entry below is paired with its result.
For COc1ccc(C2=NNC(c3ccc(Oc4nc5c(c(=O)n(C)c(=O)n5C)n4C)c(OC)c3)C2)cc1 (stereo not given) , which call appears in the assay record? class 0

For C/C(=N\Nc1ccc([N+](=O)[O-])cn1)c1ccc(N)cc1 , which call appears in the assay record? class 0

For CC(C)(C)[Si](C)(C)OC1[C@@H](CNC(N)=O)O[C@@H](n2cnc3c(NC(=O)Nc4ccccc4)ncnc32)[C@H]1O[Si](C)(C)C(C)(C)C (stereo not given in full) , which call appears in the assay record? class 1

For CCN(C(=O)CCl)C(C)(C)C(SSSC(c1ccc(Cl)cc1)C(C)(C)N(CC)C(=O)CCl)c1ccc(Cl)cc1 (stereo not given) , which call appears in the assay record? class 0

For CCN(CC)CCCCCCCCNc1c2ccc(Cl)cc2nc2ccc(OC)cc12 , which call appears in the assay record? class 1

For O=[N+]([O-])c1ccc(N=Nc2c(NNc3ccc([N+](=O)[O-])cn3)cc(S(=O)(=O)O)c3ccccc23)nc1 , which call appears in the assay record? class 0

For C#CCNc1nc(NCCNC(=O)CCl)nc(N(C)CCCCc2ccccc2)n1 , which call appears in the assay record? class 0

For COc1cc(-c2nn(C(=O)NCCN3CCN(C)CC3)cc2-c2ccncc2)ccc1Cl , which call appears in the assay record? class 0

---
For CCCNCCC(C)=O , which call appears in the assay record? class 0

For Nc1c(C(=O)Nc2cccc(Cl)c2)sc2nc3c(cc12)C(=O)CCC3 , which call appears in the assay record? class 0

For Cc1ccsc1C(=O)CC(=O)C(F)(F)C(F)(F)C(F)(F)F , which call appears in the assay record? class 0

* * *

system: LOX IMVI melanoma; assay: NCI-60 one-dose screen, 48 h (100 = growth as untreated, 0 = no growth, -100 = all killed); conditions: 10 µM unless noted
Compounds without any hit were thinned out: in the full panel of roughly 83,000, 20% have a hit. Active and inactive are the calls of the source. How the source made its calls: active means growth percent below 10; inactive means the rest.
Each entry below lists one item and its recorded growth value.

For orientation, consider the following solved cases.
get_value(item= COc1ccc2[nH]cc(C3(c4c[nH]c5ccc(OC)cc45)C(=O)Nc4ccc(F)cc43)c2c1 , readout=growth) returns 58.5% (inactive)

get_value(item= COc1ccc(CNc2c3ccccc3nc3ccc(OC)cc23)cc1 , readout=growth) returns -75.1% (active)

get_value(item= FC(F)(F)c1cc(-c2nnc3n2N=C(Cl)CS3)cc(C(F)(F)F)c1 , readout=growth) returns 77.1% (inactive)

---
get_value(item= CS(=O)(=O)c1ccc(C(=O)N/N=C/c2cccc3ccccc23)cc1 , readout=growth) returns 72.4% (inactive)

get_value(item= COc1cc2c(=O)n(CCCN(C)C)c3c4cc[nH]c4ncc3c2cc1OC , readout=growth) returns 25.3% (inactive)

get_value(item= COc1cc(-c2nc(-c3ccc(-c4nc5ccc(F)cc5[nH]4)cc3)no2)cc(OC)c1OC , readout=growth) returns 24.8% (inactive)

get_value(item= C[N+](C)(C)CC(=O)N/N=C\c1ccco1 , readout=growth) returns 101% (inactive)

get_value(item= CN(C)c1nc(-c2ccco2)n2nc(-c3ccc(Cl)cc3)cc2n1 , readout=growth) returns 50.5% (inactive)
